system-name: MOR, mouse vas deferens (Mus musculus)
Construct: gene Oprm1; native receptor in isolated mouse vas deferens
Sequence (P42866 whole entry): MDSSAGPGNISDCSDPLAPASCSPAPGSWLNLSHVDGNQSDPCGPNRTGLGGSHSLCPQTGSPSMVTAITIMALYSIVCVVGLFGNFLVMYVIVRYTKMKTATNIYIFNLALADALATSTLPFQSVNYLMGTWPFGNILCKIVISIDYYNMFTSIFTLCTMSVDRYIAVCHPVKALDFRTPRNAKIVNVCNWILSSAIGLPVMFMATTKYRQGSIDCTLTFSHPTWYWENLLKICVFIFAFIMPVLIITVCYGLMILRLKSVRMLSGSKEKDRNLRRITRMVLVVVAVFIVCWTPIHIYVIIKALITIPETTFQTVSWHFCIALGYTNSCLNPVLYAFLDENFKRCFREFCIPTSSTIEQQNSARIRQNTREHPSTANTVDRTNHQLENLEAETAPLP
run-parameters: agonist; Mg2+-free Krebs, 31 °C; MOR assigned by naloxone Ke; read-out: EC50 ± S.E.M. (nM) / MVD
measurement-name: EC50

Exam item: Find EC50 (MOR, mouse vas deferens (Mus musculus)) for the entry COc1ccc2c3c1O[C@H]1[C@@H](OS(=O)(=O)O)C=C[C@H]4[C@@H](C2)N(C)CC[C@@]341 [codeine-6-O-sulfate]
Marked response: > 1000 nM

src = paper PMC7144380
